Assay: circadian clock period modulators, cell-based, LOPAC library, luminescence reporter (AID 2774);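 also: values are relative to mean of DMSO wells on each plate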
Details: circadian reporter cells, at 7 µM, actives lie on both sides
Active and inactive are the calls of the source. No rule for the calls is given here.
measured_quantity: period change

Reference set, count: 6
{"columns": ["compound", "period change"],
 "data": [
  ["O=[N+]([O-])c1cccc2cn[nH]c12", "-0.295 h (inactive)"],
  ["O=C(CCCN1CCC(O)(c2ccc(Cl)cc2)CC1)c1ccc(F)cc1", "0.015 h (inactive)"],
  ["NCCc1cnc[nH]1", "0.14 h (inactive)"],
  ["C1CCc2nnnn2CC1", "-0.075 h (inactive)"],
  ["CC(C)NCC(O)COc1ccc(CC(N)=O)cc1 (centres undefined)", "0.015 h (inactive)"],
  ["CN(C)CCCO[C@@H]1[C@H]2OC(C)(C)O[C@H]2O[C@@H]1C(O)CO (some centres undefined)", "-0.08 h (inactive)"]
]}

Now for another entry.
Please report the recorded period change for NC(N)=NCCC[C@H](N)C(=O)O . -0.2 h (inactive)
